run description: Cell Viability - LYMP2-013 (AID 970);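 also: cells exposed to compound for 24 h at 37 °C; nearly all actives have a fitted effect of over 55% in size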
condition set: LYMP2-013 lymphoblastoid cells viability; series mostly up to 92.2 µM
Results filed as inconclusive are left out. Calls of active or inactive are those of the source. Calls follow the shape of the dose curve; as a rule, active = well fitted cell-killing curve with a large enough effect; inconclusive = small, poorly fitted or top-dose-only effect; inactive = flat fitted curve, though single readings scatter.
Outcome codes: y (active), n (inactive)

molecule=C/C=C/C=C/C(=O)O assigned_label=n
molecule=CO assigned_label=n
molecule=O=P(O)(O)O assigned_label=n
molecule=OCC(O)CO assigned_label=n
molecule=C[C@H](CCC(=O)O)[C@H]1CC[C@H]2[C@@H]3[C@H](O)C[C@@H]4C[C@H](O)CC[C@]4(C)[C@H]3C[C@H](O)[C@]12C assigned_label=n
molecule=Oc1cccc(O)c1O assigned_label=n
molecule="C=C1C(CCl)(CCl)C2(Cl)C(Cl)C(Cl)C1(Cl)C2(Cl)Cl (configuration not stated)" assigned_label=y

---

Tested on: CP252
run description: qHTS profiling for inhibitors of Plasmodium falciparum proliferation (AID 504749); also: nearly all actives have a fitted effect of over 60% in size
condition set: P. falciparum in erythrocytes, SYBR Green DNA, 72 h; series mostly up to 28.7 µM
Inconclusive results are not listed. Calls of active or inactive are those of the source. Calls come from the whole dose curve; as a rule, active = well fitted inhibition curve with a large enough effect; inconclusive = small, poorly fitted or top-dose-only effect; inactive = flat fitted curve, though single readings scatter.
Possible outcomes: active, inactive

molecule=O=P(O)(O)CP(=O)(O)O study_target=CP252 assigned_label=inactive
molecule=Cn1cc(NC(=O)c2cc(NC(=O)c3cc(NC=O)cn3C)cn2C)cc1C(=O)NCCC(=N)N study_target=CP252 assigned_label=active
molecule="CN1c2c(nc(N)[nH]c2=O)NCC1CNc1ccc(C(=O)NC(CCC(=O)O)C(=O)O)cc1 (stereo not given)" study_target=CP252 assigned_label=inactive
molecule=COc1ccc(C(=O)c2ccc(C)cc2)c(O)c1 study_target=CP252 assigned_label=inactive
molecule=Cc1ccccn1 study_target=CP252 assigned_label=inactive
molecule=COc1ccc2nc(NC(=O)Nc3ccccc3)sc2c1 study_target=CP252 assigned_label=inactive
molecule="CCOC(=O)C1=C(COCCN)NC(C)=C(C(=O)OC)C1c1ccccc1Cl (stereo not given)" study_target=CP252 assigned_label=inactive
molecule=Cc1cc(-c2ccc(N=Nc3c(S(=O)(=O)O)cc4cc(S(=O)(=O)O)cc(N)c4c3O)c(C)c2)ccc1N=Nc1c(S(=O)(=O)O)cc2cc(S(=O)(=O)O)cc(N)c2c1O study_target=CP252 assigned_label=inactive
molecule=O=P(O)(O)OP(=O)(O)OP(=O)(O)O study_target=CP252 assigned_label=inactive
molecule=CCCCO study_target=CP252 assigned_label=inactive
molecule="CS(=O)(=O)OCC(O)C(O)COS(C)(=O)=O (stereo not given)" study_target=CP252 assigned_label=inactive
molecule=Cc1ccc(S(=O)(=O)NCl)cc1 study_target=CP252 assigned_label=inactive
molecule=CCC(=O)c1ccc2c(c1)N(CCCN1CCN(CCO)CC1)c1ccccc1S2 study_target=CP252 assigned_label=active
molecule="CC(C)c1nc(N(C)S(C)(=O)=O)nc(-c2ccc(F)cc2)c1/C=C/C(O)CC(O)CC(=O)O (stereo not given)" study_target=CP252 assigned_label=inactive
molecule=C=CC(=O)O study_target=CP252 assigned_label=inactive
molecule="NC(N)=NCC1COc2ccccc2O1 (stereo not given)" study_target=CP252 assigned_label=inactive
molecule=CCCCC/C=C\C/C=C\C/C=C\CCCCC(=O)O study_target=CP252 assigned_label=inactive
molecule="CCCCC(CC)COS(=O)(=O)O (stereo not given)" study_target=CP252 assigned_label=inactive
molecule=O=C(OCc1ccccc1)c1ccc(O)cc1 study_target=CP252 assigned_label=inactive
molecule="CN(CCO)CC(O)Cn1cnc2c1c(=O)n(C)c(=O)n2C (stereo not given) (tested in a mixture with another compound)" study_target=CP252 assigned_label=inactive
molecule=CN(C)C=Nc1c(I)cc(I)c(CCC(=O)O)c1I study_target=CP252 assigned_label=inactive
molecule="c1ccc2c(c1)OCC(CN1CCCCC1)O2 (stereo not given)" study_target=CP252 assigned_label=inactive
molecule=CC(=O)N=c1sc(S(N)(=O)=O)nn1C study_target=CP252 assigned_label=inactive
molecule=CC(=O)Nc1c(I)c(C(=O)O)c(I)c(N(C)C(C)=O)c1I study_target=CP252 assigned_label=inactive
molecule=CCOC(=O)[C@@H](N)CS study_target=CP252 assigned_label=inactive

---

run description: qHTS Assay for Identifying Gametocytocidal Compounds (AID 743244);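 also: % is scaled to controls: 0 for no effect and ±100 for the full control effect; actives lower the fluorescent signal which means gametocytes are killed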
condition set: P. falciparum 3D7 stage III-V gametocytes, alamarBlue, 72 h; hits give low values
Results filed as inconclusive are left out.
recorded metric: max response (%)

sample_smiles=CNC(=O)OCc1cccc(COC(=O)NC)n1 readout_value=8.67
sample_smiles=OCc1ccccc1 readout_value=0.478
sample_smiles=CO[C@H]1C[C@H](O[C@@H]2/C(C)=C/C[C@@H]3C[C@@H](C[C@]4(CC[C@H](C)[C@@H](C5CCCCC5)O4)O3)OC(=O)[C@@H]3C=C(C)/C(=N/O)[C@H]4OC/C(=C\C=C\[C@@H]2C)[C@]43O)O[C@@H](C)[C@@H]1O readout_value=-14.2
sample_smiles=CNC(=O)c1c(I)c(C(=O)NCC(=O)Nc2c(I)c(C(=O)O)c(I)c(C(=O)NCCO)c2I)c(I)c(N(C)C(C)=O)c1I readout_value=1.95
sample_smiles=Oc1cc(O)cc(O)c1 readout_value=16.3
sample_smiles=CCc1ccc(S(=O)(=O)O)cc1 readout_value=-6.98
sample_smiles=O=C(O)/C=C/c1ccccc1 readout_value=0.36

---

run description: Drug repurposing screens with cells derived from glioblastoma tumor samples (AID 1345199); also: % is scaled to controls: 0 for no effect and ±100 for the full control effect; nearly all actives have a fitted effect of over 40% in size
condition set: GBM patient neurospheres viability, ATP luminescence, 48 h; at 20 µM (top of the series); tumour line C
Results filed as inconclusive are left out.
Entries and their activity, negative = cell killing
recorded metric: activity, negative = cell killing (%)

compound=CO[C@H]1C[C@H](O[C@H]2[C@H](C)[C@@H](O[C@@H]3O[C@H](C)C[C@H](N(C)C)[C@H]3O)[C@@H](C)C[C@]3(CO3)C(=O)[C@H](C)[C@@H](O)[C@@H](C)[C@@H](C)OC(=O)[C@@H]2C)O[C@@H](C)[C@@H]1O readout_value=-8.16
compound="CCN1C(=O)NC(c2ccccc2)C1=O (stereo not given)" readout_value=-11.1
compound="CN[C@@H]1[C@@H](O)[C@@H](O[C@@H]2[C@@H](O)[C@H](OC3OC(CN)=CCC3N)[C@@H](N)C[C@H]2N)OC[C@]1(C)O (stereo not given in full)" readout_value=5.74
compound=CCOC(=O)Oc1c(OC)cc(C(=O)O[C@@H]2C[C@@H]3CN4CCc5c([nH]c6cc(OC)ccc56)[C@H]4C[C@@H]3[C@H](C(=O)OC)[C@H]2OC)cc1OC readout_value=-3.41
compound="COC1[C@@H](O[C@@H]2O[C@H](C)[C@@H](O[C@H]3C[C@@](C)(O)[C@H](OC(=O)CC(C)C)[C@H](C)O3)[C@H](N(C)C)[C@H]2O)[C@@H](CC=O)C[C@@H](C)[C@@H](O)/C=C/C=C/C[C@@H](C)OC(=O)C[C@H]1OC(C)=O (stereo not given in full)" readout_value=-1.06

---

run description: Cell Viability - LYMP2-010 (AID 981);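 also: cells exposed to compound for 24 hours at 37 °C; % is scaled to controls: 0 for no effect and ±100 for the full control effect; nearly all actives have a fitted effect of over 55% in size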
condition set: LYMP2-010 lymphoblastoid cell viability, qHTS; series mostly up to 92.2 µM
Results filed as inconclusive are left out. Active and inactive are the calls of the source. The call rests on the fitted dose curve; in most records, active means well fitted cell-killing curve with a large enough effect; inconclusive means small, poorly fitted or top-dose-only effect; inactive means flat fitted curve, though single readings scatter.
recorded metric: outcome

sample_smiles=OCc1ccccc1 readout_value=inactive
sample_smiles=C[C@H](CCC(=O)O)[C@H]1CC[C@H]2[C@@H]3CC[C@@H]4C[C@H](O)CC[C@]4(C)[C@H]3C[C@H](O)[C@]12C readout_value=inactive
sample_smiles=[O-][N+](=Nc1ccccc1)c1ccccc1 readout_value=inactive
sample_smiles=C/C=C/C=C/C(=O)O readout_value=inactive

---

run description: P-glycoprotein substrates identified in KB-8-5-11 adenocarcinoma cell line, qHTS therapeutic library screen (AID 1346987); also: % is scaled to controls: 0 for no effect and ±100 for the full control effect; nearly all actives have a fitted effect of over 65% in size
condition set: KB-8-5-11 (P-gp overexpressing) viability, CellTiter-Glo, 72 h; series mostly up to 44.5 µM
Records with an inconclusive call do not appear. The source made the active and inactive calls. Calls follow the shape of the dose curve; as a rule, active = well fitted inhibition curve with a large enough effect; inconclusive = small, poorly fitted or top-dose-only effect; inactive = flat fitted curve, though single readings scatter.
recorded metric: outcome

sample_smiles=O=C(O)c1cc(O)c2c(c1)[C@H]([C@H]1c3cc(C(=O)O)cc(O)c3C(=O)c3c(O[C@@H]4O[C@H](CO)[C@@H](O)[C@H](O)[C@H]4O)cccc31)c1cccc(O[C@@H]3O[C@H](CO)[C@@H](O)[C@H](O)[C@H]3O)c1C2=O readout_value=inactive
sample_smiles=CC(=C\c1ccccc1)/C=C1/SC(=S)N(CC(=O)O)C1=O readout_value=inactive
sample_smiles=O=C(O)c1ccc(NC(=O)[C@H](Cc2ccc(O)cc2)NC(=O)c2ccccc2)cc1 readout_value=inactive
sample_smiles=Cc1cccc(Nc2ncccc2C(=O)O)c1C readout_value=inactive

---

Tested on: P93_24
run description: qHTS profiling for inhibitors of Plasmodium falciparum proliferation (AID 504749); also: nearly all actives have a fitted effect of over 60% in size
condition set: P. falciparum in erythrocytes, SYBR Green DNA, 72 h; series mostly up to 28.7 µM
Inconclusive results are not listed. The source made the active and inactive calls. Calls come from the whole dose curve; as a rule, active = well fitted inhibition curve with a large enough effect; inconclusive = small, poorly fitted or top-dose-only effect; inactive = flat fitted curve, though single readings scatter.
Outcome codes: active, inactive

compound=CC(C)(C)CC(C)(C)c1cc(Cc2cc(C(C)(C)CC(C)(C)C)cc(-n3nc4ccccc4n3)c2O)c(O)c(-n2nc3ccccc3n2)c1 assigned_label=inactive
compound=CCCCC[C@H](O)/C=C/[C@@H]1[C@H]2C/C(=C/CCCC(=O)O)O[C@H]2C[C@H]1O assigned_label=inactive
compound=O=C(O)c1ccc(NC(=O)[C@H](Cc2ccc(O)cc2)NC(=O)c2ccccc2)cc1 assigned_label=inactive
compound=CCCCC assigned_label=inactive
compound=CCSc1ccc2c(c1)N(CCCN1CCN(C)CC1)c1ccccc1S2 assigned_label=inactive
compound=CO/N=C(\C(=O)N[C@@H]1C(=O)N2C(C(=O)[O-])=C(C[n+]3cccc4c3CCC4)CS[C@H]12)c1csc(N)n1 assigned_label=inactive
compound=CCCCC/C=C\C/C=C\C/C=C\CCCCC(=O)O assigned_label=inactive
compound=CN=C1C=CC(=C(c2ccc(N(C)C)cc2)c2ccc(N(C)C)cc2)C=C1 assigned_label=active
compound=O=C(O)c1ccc(OCCn2ccnc2)cc1 assigned_label=inactive
compound="CC(C)[C@H](N)C(=O)OCC(CO)OCn1cnc2c(=O)[nH]c(N)nc21 (some centres not stated)" assigned_label=inactive
compound=CCCc1ccc(C(=O)O)cc1 assigned_label=inactive
compound=O=C1NCCN1c1ncc([N+](=O)[O-])s1 assigned_label=inactive
compound=O=C(O)/C=C/C(=O)Nc1ccc(S(=O)(=O)Nc2nccs2)cc1 assigned_label=inactive
compound=CCCCCCCCCCCCCCCCCC(=O)OC[C@@H](O)[C@H]1OC[C@H](O)[C@H]1O assigned_label=inactive
compound=O=C1c2ccccc2CN2C(=O)c3ccccc3CN12 assigned_label=inactive
compound=C[C@H](O)CN(C)C assigned_label=inactive
compound=CC/C=C\C/C=C\C/C=C\C/C=C\C/C=C\C/C=C\CCC(=O)O assigned_label=inactive
compound=C[C@]12CC[C@@H]3c4ccc(OC(=O)c5ccccc5)cc4CC[C@H]3[C@@H]1CC[C@@H]2O assigned_label=inactive
compound=O=[N+]([O-])c1c(Cl)cccc1-c1c[nH]cc1Cl assigned_label=inactive
compound=O=C(O)[C@H]1CN(C/C=C/P(=O)(O)O)CCN1 assigned_label=inactive
compound=CCOC(=O)[C@@H](N)CS assigned_label=inactive
compound=CCCOC(=O)c1ccccc1O assigned_label=inactive
compound=CC(=O)Oc1cccc(C(=O)O)c1OC(C)=O assigned_label=inactive
compound=CCOC(=S)SSC(=S)OCC assigned_label=inactive
compound=CC1=C(/C=C/C(C)=C/C=C/C(C)=C/C(=O)Oc2c(C)c(C)c3c(c2C)CC[C@@](C)(CCC[C@H](C)CCC[C@H](C)CCCC(C)C)O3)C(C)(C)CCC1 assigned_label=inactive
compound=O=C(OCc1ccccc1)c1cccnc1 assigned_label=inactive
compound=OC[C@H]1O[C@@H]2O[C@H]3[C@H](O)[C@@H](O)[C@@H](O[C@H]4[C@H](O)[C@@H](O)[C@@H](O[C@H]5[C@H](O)[C@@H](O)[C@@H](O[C@H]6[C@H](O)[C@@H](O)[C@@H](O[C@H]7[C@H](O)[C@@H](O)[C@@H](O[C@H]1[C@H](O)[C@H]2O)O[C@@H]7CO)O[C@@H]6CO)O[C@@H]5CO)O[C@@H]4CO)O[C@@H]3CO assigned_label=inactive
compound=CCN(CC)CCC(=O)N1c2ccccc2Sc2ccc(Cl)cc21 assigned_label=active
compound=Cc1ccc(S(=O)(=O)NCl)cc1 assigned_label=inactive
compound=CC/C=C\C/C=C\C/C=C\CCCCCCCC(=O)O assigned_label=inactive
compound=NCCO/C=C/[C@H](N)C(=O)O assigned_label=inactive
compound=O=P(O)(O)OP(=O)(O)OP(=O)(O)O assigned_label=inactive
compound=CCCCCCCCCCCCCCCCOCCOCCOCCOCCOCCOCCOCCOCCOCCOCCOCCOCCOCCOCCOCCOCCOCCOCCOCCOCCO assigned_label=active
compound=O=C(CCCCCCCCCCCCC1CCCC1)Nc1ccc(S(=O)(=O)c2ccc(NC(=O)CCCCCCCCCCCCC3CCCC3)cc2)cc1 assigned_label=inactive
compound=C[C@H]1O[C@@H](O[C@H]2[C@@H](O)C[C@H](O[C@H]3[C@@H](O)C[C@H](O[C@H]4CC[C@@]5(C)[C@H](CC[C@@H]6[C@@H]5C[C@@H](O)[C@]5(C)[C@@H](C7=CC(=O)OC7)CC[C@]65O)C4)O[C@@H]3C)O[C@@H]2C)C[C@H](O)[C@@H]1O assigned_label=inactive
compound="CCC(C(=O)NC(N)=O)c1ccccc1 (configuration not stated)" assigned_label=inactive
compound="CCC(O)c1ccccc1 (configuration not stated)" assigned_label=inactive
compound=OCC(O)CO assigned_label=inactive
compound=CCN(CC)C(=O)c1cccnc1 assigned_label=inactive
compound=Oc1ccc(Cl)c2c1CCC2 assigned_label=inactive
compound=NCC[C@H](O)C(=O)N[C@@H]1C[C@H](N)[C@@H](O[C@H]2O[C@H](CN)CC[C@H]2N)[C@H](O)[C@H]1O[C@H]1O[C@H](CO)[C@@H](O)[C@H](N)[C@H]1O assigned_label=inactive
compound=COc1ccc(C(=O)c2ccc(C)cc2)c(O)c1 assigned_label=inactive
